The measurements presented in this section are drawn from patent US5935954A.

# SYSTEM_UNDER_TEST: FKBP12 (Homo sapiens, UniProt P62942)
# Sequence (P62942 whole entry, species assumed): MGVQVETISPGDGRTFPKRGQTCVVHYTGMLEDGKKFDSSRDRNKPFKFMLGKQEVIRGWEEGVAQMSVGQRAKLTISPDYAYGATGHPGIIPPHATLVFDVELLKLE
# ASSAY_DETAILS: FKBP12 binding assay (inhibition of rotomase activity)
# Type: biochemical
# PROTOCOL_CONDITIONS: apparent Ki
RECORDED_ENDPOINT: Ki (nM)

[A] CCC/C=C(\c1cncc([C@@H](CCN2CCOCC2)OC(=O)[C@@H]2CCCCN2C(=O)C(=O)[C@@H]2C[C@H](C(C)(C)OC)CC[C@H]2C)c1)C(C)C
[B] CCOc1ccccc1-c1cncc([C@H](CCCc2ccccc2)OC(=O)[C@@H]2CCCCN2C(=O)C(=O)c2cc(OC)c(OC)c(OC)c2)c1
[C] COc1cc(C(=O)C(=O)N2CCCC[C@H]2C(=O)O[C@H](CCCc2ccccc2)c2cccc(/C(=C\CCc3ccccc3)c3ccc[n+]([O-])c3)c2)cc(OC)c1OC
input: Which order do these items take when sorted by rising Ki? List them. Output the labels ranked as instructed.
output: C, B, A
